system: HepG2; test: GSK_TCMDC: Percent inhibition of human HepG2 cell line. Test compounds present at 10uM.; assay type: functional
Flag rule - Inhibition less than 20% flags label 1; the remaining entries get label 0.

A selection of reference data follows.
- molecule: "CC1(C)CCC(=Cc2ccc(Cl)cc2)CC1(O)Cn1ccnc1 (stereo unspecified)"
  group label: "label 1"
- molecule: "CC1Cc2ccccc2N1CC(=O)Nc1cc(C(F)(F)F)ccc1-n1cncn1 (stereo unspecified)"
  group label: "label 1"
- molecule: "CCOc1ccc(C2CCN(CCCCNC(=O)c3ccc(NC(=O)c4ccc(Cl)cc4)cc3)CC2)c(Cl)c1"
  group label: "label 0"
- molecule: "CN1CCC(C(=O)N(Cc2ccc(-c3ccc(CNCCc4ccc(S(C)(=O)=O)cc4)cn3)cc2)C2CCN(Cc3ccccc3)CC2)CC1.O=C(O)C(F)(F)F"
  group label: "label 1"

Input line: Please check: Inhibition for Nc1cccc(CNCc2cccc(-c3ccc(-c4nc5ccccc5[nH]4)s3)c2)c1.O=C(O)C(F)(F)F , strictly under 20% or not?
Output line: label 1
